Recorded logP by entry

# Molecule, logP
rows = [
    ("CN(Cc1ccccc1)C(=O)C(Cc1ccccc1)NC(=O)C(Cc1cn(C)c2ccccc12)NC(=O)CC1NC(=O)C2C3CCC(CC3)N2C1=O (stereo unspecified)", 3.85),
    ("COC(=O)n1cc(CC(NC(=O)CC2NC(=O)C3C4CCC(CC4)N3C2=O)C(=O)NC(Cc2ccccc2)C(=O)N(C)Cc2ccccc2)c2ccccc21 (stereo unspecified)", 4.05),
    ("CN(Cc1ccccc1)C(=O)C(Cc1ccccc1)NC(=O)C(Cc1cn(C(=O)CCC(=O)O)c2ccccc12)NC(=O)CC1NC(=O)C2C3CCC(CC3)N2C1=O (stereo unspecified)", 3.15),
    ("CN(Cc1ccccc1)C(=O)[C@H](Cc1ccccc1)NC(=O)[C@@H](Cc1cn(C(=O)OC(C)(C)C)c2ccccc12)NC(=O)CC1NC(=O)C2C3CCC(CC3)N2C1=O (stereo partly specified)", 5.33),
    ("CCCCCCCC(=O)n1cc(C[C@@H](NC(=O)CC2NC(=O)C3C4CCC(CC4)N3C2=O)C(=O)N[C@@H](Cc2ccccc2)C(=O)N(C)Cc2ccccc2)c2ccccc21 (stereo partly specified)", 7.29),
    ("CN(Cc1ccccc1)C(=O)C(Cc1ccccc1)NC(=O)C(Cc1cn(C(=O)OCCCCCCN)c2ccccc12)NC(=O)CC1NC(=O)C2C3CCC(CC3)N2C1=O (stereo unspecified)", 2.95),
]
